// provenance: the supplement of paper PMC7125110

B1: glmS ribozyme (parent)
chain: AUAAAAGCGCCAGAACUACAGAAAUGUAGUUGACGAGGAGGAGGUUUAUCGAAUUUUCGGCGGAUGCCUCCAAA

Variants of: B1
Experiment: self-cleavage kobs at 160 uM GlcN6P; higher = faster cleavage; RNA array
Details: with glucosamine-6-phosphate
Fewer inactive variants are shown than the library holds.
Listing of entries alongside the reported self-cleavage kobs at 160 uM GlcN6P.

| Mutation Notation | Comparison Symbol | self-cleavage kobs at 160 uM GlcN6P (s⁻¹) |
| --- | --- | --- |
| C10A C16U G41A A42C | < | 1e-05 |
| A6U G63U | < | 1e-05 |
| G32C A33G | < | 1e-05 |
| U30A U65G | = | 6.8e-05 |
| C8A G29A C50G G66A C70G | = | 9e-05 |
| G29A U31G | = | 3.63e-05 |
| C11G A14G G29A | < | 1e-05 |
| A6G C50G C58G | = | 0.000451 |
| G41A G60C | < | 1e-05 |
| C10U C16A U65A | < | 1e-05 |
| C11U A42G | = | 0.000114 |
| A6G G44A C71A | < | 1e-05 |
| C8U G35C | < | 1e-05 |
| U47A C67G | = | 5.63e-05 |
| G41C U69A | < | 1e-05 |
| G41U | = | 0.000391 |
| A33C U45G U55C U57C A64U | < | 1e-05 |
| C8U G9A | < | 1e-05 |
| U57A G60A | < | 1e-05 |
| U45C C67U | = | 0.000146 |
| A12C G63U | < | 1e-05 |
| G32C G38U G43A C67A | < | 1e-05 |
| G32A U45A | = | 0.000267 |
| A12C G35U | < | 1e-05 |
| U56A G60C | < | 1e-05 |
| C8U G40U G43U | < | 1e-05 |
| C8A G62U | < | 1e-05 |
| A39G C68G | = | 6.43e-05 |
| G66C C70A | = | 8.3e-05 |
| U30G A39C | = | 0.000114 |
| A6G C50G U54C | = | 5.66e-05 |
| C11U G41C U45A C71G | < | 1e-05 |
| A15G C16G U55A | = | 0.000205 |
| U45G C68U | = | 5.23e-05 |
| C34U C71U | < | 1e-05 |
| G29A G41U A53C C58A | < | 1e-05 |
| A39G A52G | = | 0.000117 |
| A52G C71G | = | 4.09e-05 |
| G13C A14C U55G G59U | < | 1e-05 |
| U46A U54G C70G | = | 6.23e-05 |
| G43A U45A C61G | < | 1e-05 |
| C8U C61G | < | 1e-05 |
| A15G C16A | = | 0.000119 |
| G35C G59A | < | 1e-05 |
| A64G C68G C71A | < | 1e-05 |
| C58G G60U | < | 1e-05 |
| G43C U45G | = | 0.000135 |
| C11G U46A | < | 1e-05 |
| A6C A15U C71G | < | 1e-05 |
| G38C U46G A64U | < | 1e-05 |
| A42C C61A | < | 1e-05 |
| U47C C67G | = | 3.84e-05 |
| U31A A33G C34U G59C | < | 1e-05 |
| G35A G40C | < | 1e-05 |
| A12G C67G | = | 2.45e-05 |
| U57A G59U | < | 1e-05 |
| C8A A15C C34A G38A C68G | = | 0.000422 |
| C11G U31A | < | 1e-05 |
| C11U G29U | = | 5.37e-05 |
| G44U U57G | < | 1e-05 |
| G9A A39C | < | 1e-05 |
| C50G A53U G63U U69A | = | 0.000207 |
| G44C C67U | = | 0.000153 |
| A6U A36G A64U | < | 1e-05 |
| G35C G60A C68A | < | 1e-05 |
| G29C A48U | < | 1e-05 |
| A15U G32U G37A G62U | < | 1e-05 |
| G29C U56G G66C | < | 1e-05 |
| G44C C70G | < | 1e-05 |
| A12C C16A | = | 6.12e-05 |
| A14C U30C | < | 1e-05 |
| A15C U54G | = | 0.000285 |
| G41A U55G C71A | = | 5.4e-05 |
| A15C U56C | = | 8.66e-05 |
| G29U G40U | = | 4.21e-05 |
| A33U G44U A52U | < | 1e-05 |
| C8G G29A | < | 1e-05 |
| A6C G7C A33C C50G A52C U65C | < | 1e-05 |
| U46G G63C | < | 1e-05 |
| U46G C71U | = | 0.000349 |
| U47C A52G | = | 3.5e-05 |
| G44U | = | 2.34e-05 |
| C11A A42C | < | 1e-05 |
| G13U G35C G51C U54A C70U | < | 1e-05 |
| U30C A36G U57C | < | 1e-05 |
| U56G C67G | = | 9.74e-05 |
| C11A G41A | < | 1e-05 |
| A36U U69G | = | 0.000214 |
| G7U C10A G60U | < | 1e-05 |
| G29U U54C | = | 0.000421 |
| U2C G9U C58U | < | 1e-05 |
